- system: RORc ligand binding domain (Homo sapiens (Human), UniProt P51449)
- Sequence (P51449 269-508, species assumed): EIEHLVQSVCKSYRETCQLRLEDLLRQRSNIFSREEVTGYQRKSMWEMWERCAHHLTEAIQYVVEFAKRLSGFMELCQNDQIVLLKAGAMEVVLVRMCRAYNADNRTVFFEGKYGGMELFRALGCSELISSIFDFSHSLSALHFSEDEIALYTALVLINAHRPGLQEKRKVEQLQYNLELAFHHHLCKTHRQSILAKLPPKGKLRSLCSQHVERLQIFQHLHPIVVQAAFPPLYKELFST
measure-name: pIC50
Remember the convention: pIC50 equals -log10 of concentration in molar.

Measured pIC50 for this entry `CC(C)CN(c1cccc(Cl)c1)S(=O)(=O)c1ccc(-c2ccc(S(N)(=O)=O)cc2)cc1` on RORc ligand binding domain (Homo sapiens (Human), UniProt P51449): 6.99

Cited source: patent US9302985B2
